- subject-of-test: Ba/F3 stable cells (Homo sapiens, UniProt P00533, T790M/L858R, cells depend on it)
- Construct: EC50 Ba/F3-EGFR L858R-T790M; other: Ba/F3-EGFR L858R-T790M cells, 72 h, CCK-8
- assay: EC50 assay: Ba/F3 stable cell proliferation (CCK-8, 72 h)
- protocol-conditions: Ba/F3-EGFR L858R-T790M cells
pEC50: −log10 of the molar value.
Parameter pEC50: see the listing below.

// known answers, use as guide
{"compound": "C=CC(=O)NC1CC(Oc2cc3c(Nc4ccc(F)c(Cl)c4Cl)ncnc3cc2OC)C1 (stereo not shown) [Compound 76]", "pEC50": "< 6.00"}
{"compound": "C=CC(=O)N1CCCC(c2cc3c(Nc4ccc(Cl)c(Cl)c4F)ncnc3cc2OC)C1 (stereo not shown) [Compound 185]", "pEC50": "≥ 6.70"}
{"compound": "C=CC(=O)N1CC(c2cc3c(Nc4ccc(F)c(Cl)c4F)ncnc3cc2OC)C1 [Compound 16]", "pEC50": "≥ 6.70"}

Query: Provide the reported pEC50 (system: Ba/F3 stable cells (Homo sapiens, UniProt P00533, T790M/L858R, cells depend on it)) for C=CC(=O)N1CCC(Oc2cc3c(NCc4cccc(F)c4)ncnc3cc2OC)CC1 [Compound 111]
Result: 6.00 to 6.70

---

Overview of reported pEC50 across a group of molecules:
- subject-of-test: Ba/F3 stable cells (Homo sapiens, UniProt P00533, DUP767-769, cells depend on it)
- Construct: EC50 Ba/F3-EGFR V769-D770insASV; other: Ba/F3-EGFR V769-D770insASV cells, 72 h, CCK-8
- Sequence (P00533 with tags, fused parts or gaps DUP767-769): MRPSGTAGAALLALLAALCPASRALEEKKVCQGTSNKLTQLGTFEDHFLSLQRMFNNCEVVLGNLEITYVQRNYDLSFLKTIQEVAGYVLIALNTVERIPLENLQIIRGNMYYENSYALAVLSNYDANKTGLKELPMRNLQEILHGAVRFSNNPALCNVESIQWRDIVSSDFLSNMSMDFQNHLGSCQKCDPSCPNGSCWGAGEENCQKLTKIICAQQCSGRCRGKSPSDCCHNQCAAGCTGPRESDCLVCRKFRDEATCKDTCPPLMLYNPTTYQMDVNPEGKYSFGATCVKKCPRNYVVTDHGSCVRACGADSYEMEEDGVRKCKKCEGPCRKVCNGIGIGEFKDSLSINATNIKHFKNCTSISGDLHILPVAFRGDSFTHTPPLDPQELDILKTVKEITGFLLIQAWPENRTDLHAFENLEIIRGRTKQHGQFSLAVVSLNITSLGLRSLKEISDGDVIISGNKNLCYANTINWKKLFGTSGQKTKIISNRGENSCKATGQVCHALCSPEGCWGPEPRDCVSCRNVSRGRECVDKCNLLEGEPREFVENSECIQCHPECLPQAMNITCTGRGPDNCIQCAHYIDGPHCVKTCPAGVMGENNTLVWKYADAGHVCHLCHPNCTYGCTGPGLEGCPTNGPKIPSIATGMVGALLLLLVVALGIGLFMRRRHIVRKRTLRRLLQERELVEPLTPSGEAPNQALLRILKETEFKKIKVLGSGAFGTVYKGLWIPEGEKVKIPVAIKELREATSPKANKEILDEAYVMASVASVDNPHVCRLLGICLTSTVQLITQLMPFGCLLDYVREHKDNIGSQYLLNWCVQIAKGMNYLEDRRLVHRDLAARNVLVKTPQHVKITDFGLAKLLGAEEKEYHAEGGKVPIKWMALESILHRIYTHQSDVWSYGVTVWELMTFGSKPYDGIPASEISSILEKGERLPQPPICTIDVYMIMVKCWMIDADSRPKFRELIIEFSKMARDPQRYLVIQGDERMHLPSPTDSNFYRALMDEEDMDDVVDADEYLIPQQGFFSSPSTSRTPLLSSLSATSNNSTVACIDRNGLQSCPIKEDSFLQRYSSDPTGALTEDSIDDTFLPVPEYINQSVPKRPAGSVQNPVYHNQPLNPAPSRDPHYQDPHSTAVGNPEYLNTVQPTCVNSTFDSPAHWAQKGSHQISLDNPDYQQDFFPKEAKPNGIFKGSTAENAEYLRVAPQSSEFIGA
- assay: EC50 assay: Ba/F3 stable cell proliferation (CCK-8, 72 h)
- protocol-conditions: Ba/F3-EGFR V769-D770insASV cells
- Experimental: 4,000 Ba/F3 stable cells/90 μL/well were plated onto 96-well cell culture plate (Grenier, Cat.No. 655180) and incubated at 37° C. with a humidified atmosphere of 5% CO2 for 2 h. Then the cells were treated with 10 μL compounds at serial titration. […] 10 μL the cell proliferation reagent CCK-8 (Dojindo, Cat.No. CK04 1000T) was added into each well and incubated the plate at 37° C. for 4 hours, the GD value was measured by SPECTRAmax plus (Molecular Devices) at 450 nm. […]
pEC50: −log10 of the molar value.

Reference set, count: 5
{"molecule": "C=CC(=O)N1CCC(Oc2cc3c(NC(CC(N)=O)c4cccc(Cl)c4)ncnc3cc2OC)CC1 (stereo not shown)", "pEC50": "≥ 6.70"}
{"molecule": "C=CC(=O)N1CCC(Oc2cc3c(Nc4ccc5sc(C)nc5c4)ncnc3cc2OC)CC1", "pEC50": "< 6.00"}
{"molecule": "C=CC(=O)N1CCC(Oc2cc3c(Nc4ccc5[nH]ccc5c4)ncnc3cc2OC)CC1", "pEC50": "≥ 6.70"}
{"molecule": "C=CC(=O)N1CC(c2cc3c(Nc4ccc(Cl)c5ccccc45)ncnc3cc2OC)C1", "pEC50": "6.00 to 6.70"}
{"molecule": "C#CC(=O)N1CCC=C(c2cc3c(Nc4ccc(Cl)c(Cl)c4F)ncnc3cc2OC)C1", "pEC50": "≥ 6.70"}

Then there is this molecule:
Query: Read the entry C#CC(=O)NC1CC(Oc2cc3c(Nc4ccc(Cl)c(Cl)c4F)ncnc3cc2OC)C1 (stereo not shown) and write its reported pEC50.
Result: ≥ 6.70

---

- subject-of-test: Ba/F3 stable cells (Homo sapiens, UniProt P00533, DUP768-770, cells depend on it)
- Construct: EC50 Ba/F3-EGFR D770-N771insSVD; other: Ba/F3-EGFR D770-N771insSVD cells, 72 h, CCK-8
- Sequence (P00533 with tags, fused parts or gaps DUP768-770): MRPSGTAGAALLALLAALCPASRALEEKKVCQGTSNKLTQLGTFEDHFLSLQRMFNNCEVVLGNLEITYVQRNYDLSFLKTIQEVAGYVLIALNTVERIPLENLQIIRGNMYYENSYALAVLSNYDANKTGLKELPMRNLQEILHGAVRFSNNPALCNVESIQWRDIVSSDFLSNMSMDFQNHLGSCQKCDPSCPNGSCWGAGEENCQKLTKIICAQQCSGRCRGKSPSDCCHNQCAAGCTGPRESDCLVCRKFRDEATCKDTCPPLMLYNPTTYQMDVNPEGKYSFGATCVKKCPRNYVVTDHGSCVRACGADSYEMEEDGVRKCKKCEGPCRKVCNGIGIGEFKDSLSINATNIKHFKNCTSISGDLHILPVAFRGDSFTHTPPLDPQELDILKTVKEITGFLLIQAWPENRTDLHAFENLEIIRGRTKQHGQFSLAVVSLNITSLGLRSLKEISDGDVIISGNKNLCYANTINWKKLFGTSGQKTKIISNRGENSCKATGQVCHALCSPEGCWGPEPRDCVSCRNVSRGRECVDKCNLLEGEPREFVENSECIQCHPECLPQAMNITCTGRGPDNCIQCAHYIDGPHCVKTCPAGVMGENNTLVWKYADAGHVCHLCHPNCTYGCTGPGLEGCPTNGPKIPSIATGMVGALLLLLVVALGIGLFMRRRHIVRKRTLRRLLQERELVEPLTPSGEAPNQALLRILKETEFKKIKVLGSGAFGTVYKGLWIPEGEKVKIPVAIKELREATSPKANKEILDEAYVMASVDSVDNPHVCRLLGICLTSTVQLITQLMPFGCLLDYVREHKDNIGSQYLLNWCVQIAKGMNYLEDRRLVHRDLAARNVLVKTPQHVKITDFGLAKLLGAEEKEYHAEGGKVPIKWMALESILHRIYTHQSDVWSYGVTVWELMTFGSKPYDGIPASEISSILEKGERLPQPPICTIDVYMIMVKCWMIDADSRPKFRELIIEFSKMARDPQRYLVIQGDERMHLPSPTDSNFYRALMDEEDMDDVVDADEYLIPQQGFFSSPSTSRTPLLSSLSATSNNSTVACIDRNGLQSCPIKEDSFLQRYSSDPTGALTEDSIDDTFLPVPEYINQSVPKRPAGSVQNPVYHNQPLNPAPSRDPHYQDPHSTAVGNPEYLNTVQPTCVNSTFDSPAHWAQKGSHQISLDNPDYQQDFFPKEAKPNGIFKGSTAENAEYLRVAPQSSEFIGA
- assay: EC50 assay: Ba/F3 stable cell proliferation (CCK-8, 72 h)
- Format: cell-based
- protocol-conditions: Ba/F3-EGFR D770-N771insSVD cells
pEC50: −log10 of the molar value.
pEC50 values by entry

{"compound": "C=CC(=O)N[C@H]1C[C@@H](Oc2cc3c(Nc4ccc(Cl)c(Cl)c4F)ncnc3cc2NC)C1 [Compound 103]", "property-label": "pEC50", "reading": "≥ 6.70"}

Shift focus to the following entry.
Query: Lab note: Ba/F3 stable cells (Homo sapiens, UniProt P00533, DUP768-770, cells depend on it) assay, enter pEC50 for C=CC(=O)N1CCC(Oc2cc3c(NCc4ccc(Cl)cc4Cl)ncnc3cc2OC)CC1 [Compound 109] here
Result: < 6.00

---

- subject-of-test: Ba/F3 stable cells (Homo sapiens, UniProt P00533, DUP767-769, cells depend on it)
- Construct: EC50 Ba/F3-EGFR V769-D770insASV; other: Ba/F3-EGFR V769-D770insASV cells, 72 h, CCK-8
- assay: EC50 assay: Ba/F3 stable cell proliferation (CCK-8, 72 h)
- protocol-conditions: Ba/F3-EGFR V769-D770insASV cells
property-label: EC50

Example results:
{"test-smiles": "C=CC(=O)N1CC(c2cc3c(Nc4ccc(Cl)c(Cl)c4F)ncnc3cc2OCCO)C1", "subject-of-test": "Ba/F3 stable cells (Homo sapiens, UniProt P00533, DUP767-769, cells depend on it)", "EC50": "≤ 200 nM"}
{"test-smiles": "C=CC(=O)N1CC=C(c2c(OC)cc3ncnc4c3c2N(C)C(=O)N4c2ccc(Cl)c(Cl)c2F)CC1", "subject-of-test": "Ba/F3 stable cells (Homo sapiens, UniProt P00533, DUP767-769, cells depend on it)", "EC50": "200 to 1000 nM"}
{"test-smiles": "C=CC(=O)N1CCC(Oc2c(OC)cc3ncnc4c3c2C=CN4c2ccc(Cl)c(Cl)c2F)CC1", "subject-of-test": "Ba/F3 stable cells (Homo sapiens, UniProt P00533, DUP767-769, cells depend on it)", "EC50": "≤ 200 nM"}

Query: Please indicate EC50 recorded for C#CC(=O)N[C@H]1C[C@H](Oc2cc3c(Nc4cccc5c4CCC5)ncnc3cc2OC)C1
Result: ≤ 200 nM

---

- subject-of-test: Ba/F3 stable cells (Homo sapiens, UniProt P04626, DUP772-775, cells depend on it)
- Construct: EC50 Ba/F3-HER2 A775-G776insYVMA; other: Ba/F3-HER2 A775-G776insYVMA cells, 72 h, CCK-8
- Sequence (P04626 with tags, fused parts or gaps DUP772-775): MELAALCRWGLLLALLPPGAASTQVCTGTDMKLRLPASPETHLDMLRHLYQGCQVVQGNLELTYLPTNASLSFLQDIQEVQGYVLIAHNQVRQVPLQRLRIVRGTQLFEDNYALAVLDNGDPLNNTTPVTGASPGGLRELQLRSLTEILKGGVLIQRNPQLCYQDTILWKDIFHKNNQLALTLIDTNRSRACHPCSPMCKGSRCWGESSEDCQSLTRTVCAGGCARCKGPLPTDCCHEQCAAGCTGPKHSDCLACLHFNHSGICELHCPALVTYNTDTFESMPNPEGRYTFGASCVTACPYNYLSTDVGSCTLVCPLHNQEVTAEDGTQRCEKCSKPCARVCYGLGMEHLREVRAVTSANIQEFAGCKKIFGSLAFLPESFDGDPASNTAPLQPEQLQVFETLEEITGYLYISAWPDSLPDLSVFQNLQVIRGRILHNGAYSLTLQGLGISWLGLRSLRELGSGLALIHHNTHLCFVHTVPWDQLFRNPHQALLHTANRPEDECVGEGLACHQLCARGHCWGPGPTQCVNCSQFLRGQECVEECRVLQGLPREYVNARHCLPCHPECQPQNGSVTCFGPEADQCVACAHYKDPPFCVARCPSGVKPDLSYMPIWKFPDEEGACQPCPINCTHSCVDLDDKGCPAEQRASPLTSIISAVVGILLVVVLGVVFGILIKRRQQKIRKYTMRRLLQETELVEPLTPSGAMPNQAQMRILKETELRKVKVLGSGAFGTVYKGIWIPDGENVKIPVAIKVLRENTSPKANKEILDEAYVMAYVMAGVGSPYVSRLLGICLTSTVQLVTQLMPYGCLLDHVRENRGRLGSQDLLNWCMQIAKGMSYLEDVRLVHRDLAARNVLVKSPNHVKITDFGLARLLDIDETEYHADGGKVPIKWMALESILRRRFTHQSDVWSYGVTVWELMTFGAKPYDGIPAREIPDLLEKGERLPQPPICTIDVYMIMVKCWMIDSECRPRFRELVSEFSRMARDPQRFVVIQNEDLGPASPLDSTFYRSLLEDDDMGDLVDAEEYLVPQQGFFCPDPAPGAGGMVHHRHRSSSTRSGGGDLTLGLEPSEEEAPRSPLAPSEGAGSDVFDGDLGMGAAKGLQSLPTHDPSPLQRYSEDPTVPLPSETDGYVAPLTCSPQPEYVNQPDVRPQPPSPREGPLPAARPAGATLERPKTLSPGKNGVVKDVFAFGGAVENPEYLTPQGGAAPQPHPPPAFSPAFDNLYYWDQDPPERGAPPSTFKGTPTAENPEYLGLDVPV
- assay: EC50 assay: Ba/F3 stable cell proliferation (CCK-8, 72 h)
- protocol-conditions: Ba/F3-HER2 A775-G776insYVMA cells
pEC50: −log10 of the molar value.
property-label: pEC50

{"compound": "C=CC(=O)N1CC(c2cc3c(NCc4cccc(Cl)c4)ncnc3cc2OC)C1", "pEC50": "< 6.00"}
{"compound": "C=CC(=O)N1CCC(Oc2cc3c(NCc4cccc(I)c4)ncnc3cc2OC)CC1", "pEC50": "6.00 to 6.70"}
{"compound": "C=CC(=O)N1C2CCCC1CC(Oc1cc3c(Nc4ccc5ccccc5c4)ncnc3cc1OC)C2 (stereo not drawn)", "pEC50": "≥ 6.70"}
{"compound": "C=CC(=O)N1CCC(Oc2cc3c(Nc4ccc5c(c4)CCN5S(C)(=O)=O)ncnc3cc2OC)CC1", "pEC50": "≥ 6.70"}
{"compound": "C#CC(=O)N[C@H]1C[C@H](Oc2cc3c(Nc4cccc5c4CCC5)ncnc3cc2OC)C1", "pEC50": "6.00 to 6.70"}

Next item in the queue.
Query: Using the record for C=CC(=O)N1CCC(Oc2cc3c(Nc4ccc5ncccc5c4)ncnc3cc2OC)CC1 , state its measured pEC50.
Result: 6.00 to 6.70

---

- subject-of-test: Ba/F3 stable cells (Homo sapiens, UniProt P00533, DUP771-773, cells depend on it)
- Construct: EC50 Ba/F3-EGFR H773-V774insNPH; other: Ba/F3-EGFR H773-V774insNPH cells, 72 h, CCK-8
- Sequence (P00533 with tags, fused parts or gaps DUP771-773): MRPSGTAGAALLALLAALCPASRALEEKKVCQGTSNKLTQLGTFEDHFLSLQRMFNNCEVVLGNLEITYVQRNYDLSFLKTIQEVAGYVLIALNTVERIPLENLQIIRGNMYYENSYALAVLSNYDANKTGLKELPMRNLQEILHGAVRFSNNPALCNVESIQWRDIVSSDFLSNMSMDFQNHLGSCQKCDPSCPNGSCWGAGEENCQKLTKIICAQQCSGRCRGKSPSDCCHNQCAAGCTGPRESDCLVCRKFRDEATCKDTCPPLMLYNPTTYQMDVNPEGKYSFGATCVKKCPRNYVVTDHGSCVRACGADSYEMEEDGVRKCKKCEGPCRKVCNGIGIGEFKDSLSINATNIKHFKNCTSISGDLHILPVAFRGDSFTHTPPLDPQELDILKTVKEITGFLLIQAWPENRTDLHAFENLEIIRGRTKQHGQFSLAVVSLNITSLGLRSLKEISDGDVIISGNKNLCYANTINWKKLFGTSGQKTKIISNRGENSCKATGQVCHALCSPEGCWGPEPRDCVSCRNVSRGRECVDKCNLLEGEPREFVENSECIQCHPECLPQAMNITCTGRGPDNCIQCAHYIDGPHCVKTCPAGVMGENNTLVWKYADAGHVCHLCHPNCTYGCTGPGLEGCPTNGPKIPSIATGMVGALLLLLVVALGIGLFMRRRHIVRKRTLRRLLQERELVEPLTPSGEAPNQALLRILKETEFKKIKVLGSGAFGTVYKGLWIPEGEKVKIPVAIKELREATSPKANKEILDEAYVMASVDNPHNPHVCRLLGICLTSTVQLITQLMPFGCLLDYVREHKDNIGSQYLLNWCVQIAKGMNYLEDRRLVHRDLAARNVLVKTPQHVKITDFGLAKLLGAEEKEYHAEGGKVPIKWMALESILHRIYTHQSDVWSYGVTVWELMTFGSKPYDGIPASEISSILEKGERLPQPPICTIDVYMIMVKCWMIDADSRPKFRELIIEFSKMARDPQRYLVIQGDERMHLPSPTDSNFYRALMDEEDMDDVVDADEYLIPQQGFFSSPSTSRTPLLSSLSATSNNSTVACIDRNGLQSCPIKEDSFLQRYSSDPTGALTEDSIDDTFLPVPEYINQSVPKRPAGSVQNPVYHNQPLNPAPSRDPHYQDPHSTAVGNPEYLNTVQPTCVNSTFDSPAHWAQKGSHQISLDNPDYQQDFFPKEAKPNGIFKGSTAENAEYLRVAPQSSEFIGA
- assay: EC50 assay: Ba/F3 stable cell proliferation (CCK-8, 72 h)
- protocol-conditions: Ba/F3-EGFR H773-V774insNPH cells
pEC50: −log10 of the molar value.
property-label: pEC50

{"molecule": "C#CC(=O)N1CCC(Oc2c(OC)cc3ncnc4c3c2NC(=O)N4c2ccc(Cl)c(Cl)c2)CC1 [Compound 227]", "pEC50": "≥ 6.70"}
{"molecule": "C=CC(=O)N1CCC(Oc2c(OC)cc3ncnc4c3c2NC(=O)N4c2ccc(Cl)c(Cl)c2)CC1 [Compound 215]", "pEC50": "< 6.00"}
{"molecule": "C#CC(=O)N1C2CCCC1CC(Oc1cc3c(Nc4cccc5ccccc45)ncnc3cc1OC)C2 (stereo not shown) [Compound 57]", "pEC50": "≥ 6.70"}
{"molecule": "C=CC(=O)NC1CC(Oc2cc3c(Nc4ccc5ccccc5c4)ncnc3cc2OC)C1 (stereo not shown) [Compound 80]", "pEC50": "< 6.00"}
{"molecule": "C=CC(=O)N1CCC(Oc2c(OC)cc3ncnc4c3c2NC(=O)N4c2ccc(Cl)c(Cl)c2F)CC1 [Compound 199]", "pEC50": "6.00 to 6.70"}
{"molecule": "C=C(F)C(=O)N1CC(c2cc3c(Nc4ccc(Cl)c(Cl)c4F)ncnc3cc2O[C@H]2CCOC2)C1 [Compound 37]", "pEC50": "6.00 to 6.70"}
{"molecule": "C=CC(=O)N1CCC(Oc2cc3c(Nc4ccc5ncccc5c4)ncnc3cc2OC)CC1 [Compound 143]", "pEC50": "6.00 to 6.70"}
{"molecule": "C=CC(=O)N1CCC(Oc2cc3c(Nc4ccc5cccnc5c4)ncnc3cc2OC)CC1 [Compound 141]", "pEC50": "6.00 to 6.70"}
{"molecule": "C=CC(=O)N1CC(c2cc3c(Nc4ccc(Cl)c(Cl)c4F)ncnc3cc2OC)C1 [Compound 1]", "pEC50": "≥ 6.70"}

Moving on to the next molecule.
Query: Retrieve pEC50 measured for C=CC(=O)N1CC(c2cc3c(Nc4ccc(Cl)c(Cl)c4F)ncnc3cc2OCCCN2CCN(C)CC2)C1 [Compound 31] and print it.
Result: ≥ 6.70

# credit: patent US20250243171A1
